# Tested on: MS2 coat protein
# Assay protocol: apparent KD of MS2 coat protein; designed switch direction (-1 OFF switch, 1 ON switch): 1; higher = weaker reporter binding
# Setup conditions: input ligand: none
Result type: apparent KD of MS2 coat protein (nM)
Give the value, in units of nM, as a plain number.

Use these answered entries as a reference point.
>  <Seq>
GUGGUCAGACAUGAGGAUCACCCAUGUGGAAUAAAUAACGGACAGGAUAUUGAAUAUAGGAUAUACAAGAAGGGUUGAUUGGUG (Eterna round: R96, puzzle: Same State NG 3)

>  <Target under test>
MS2 coat protein

>  <Assay result>
73.9

$$$$
>  <Seq>
GGCCAGAGUCAAGGAUAUGCUACCGUUUCGGUAGCAGAAGGUGAUCACAUGAGGAUCACCCAUGUAUACGCUGGGAAGCGGGCC [JL SSNG1 3.65] (Eterna round: R96, puzzle: Same State NG 1)

>  <Target under test>
MS2 coat protein

>  <Assay result>
119

$$$$
>  <Seq>
GUUACAUGAGGAUCACCCAUGUAUGUGUGGGAGUAAGUGUCUUAGGAUAUCUAGUAUUCAAUUUAAGAGAAGGAAGAUUGUUGU [JMF's solution 58] (Eterna round: R96, puzzle: Same State NG 3)

>  <Target under test>
MS2 coat protein

>  <Assay result>
93.9

$$$$
>  <Seq>
UUGCUUCUCGUAGGAUAUGUAGGAUAUGCCUACAUGAGGAUCACCCAUGUUCGCAUGGCAGAAGGACAGAAGGACGAUCACCCU [pwkr ssNG2 2FMN + 1F5.8] (Eterna round: R96, puzzle: Same State NG 2)

>  <Target under test>
MS2 coat protein

>  <Assay result>
472

$$$$
>  <Seq>
AUGUGUUUGCGAGGAUAUCGUUUGUUGAAGUUACGAGAAGGCGCUCACUUUACAUGAGGAUCACCCAUGUCUUUGAUGCAUGAU [JR_SSNG1_Sub073] (Eterna round: R96, puzzle: Same State NG 1)

>  <Target under test>
MS2 coat protein

>  <Assay result>
44.1

$$$$

Enquiry: Supply apparent KD of MS2 coat protein value. Item: AUAGUUAGCAAAGGAUAUGGGAAAGGAAGUGUACCAGAAGGUUGGCUACUGGGCUUACAUGAGGAUCACCCAUGUCCCGGUAGC [PowerStrip SSNG 1.30] (Eterna round: R96, puzzle: Same State NG 1)
Return: 15.4

Enquiry: Note down apparent KD of MS2 coat protein recorded for GCUACCAUUGAUGCCUACAUGAGGAUCACCCAUGUAUGUAGGCAGGAUAUCGAUUGCAAAGCGAUCGAGAAGGGCUUAGGUAGC [Mat - Same State NG 3 - JL Mod - D93] (Eterna round: R96, puzzle: Same State NG 3)
Return: 149

Enquiry: Supply reported apparent KD of MS2 coat protein belonging to this sequence: CUGCUCGGGUGAGGAUAUGCCGCCGUUUCGGCUGCAGAAGGUGCUACGUUACAUGAGGAUCACCCAUGUCUCUGUUGUUUCGUC [salish99_SSNG1_r04_967] (Eterna round: R96, puzzle: Same State NG 1)
Return: 57.3

Enquiry: Quickly give me recorded apparent KD of MS2 coat protein for UUAAUUAAUUAAUUAUACAUGAGGAUCACCCAUGUAAGUGAUCAGGAUAUCAGCUCGUUUAGAGCUGAGAAGGGAUACAUGAAU [SSNG3/12-A3] (Eterna round: R96, puzzle: Same State NG 3)
Return: 143

Enquiry: // fetch apparent KD of MS2 coat protein given entry UGAACCUUCACAGGAUAUCAUGCGAAAAUUGCGUGAGAAGGGUGGAUGUGGUGUUCAUAGUUGCACAUGAGGAUCACCCAUGUA [SameState NG1 #51] (Eterna round: R96, puzzle: Same State NG 1)
Return: 237

---

# Tested on: MS2 coat protein
# Assay protocol: apparent KD of MS2 coat protein; designed switch direction (-1 OFF switch, 1 ON switch): -1; higher = weaker reporter binding
# Setup conditions: Eterna round: R95; input ligand: none
Result type: apparent KD of MS2 coat protein (nM)
Just the number please, in nM, no unit attached.

Enquiry: For the sequence AAAUGUUCGGAGGAUAUAGAACGAUUGUCCGAGCUAGAAGGCCGAACAUGAGGAUCACCCAUGUGUACCUGAAA [Atmare] (puzzle: Exclusion 6) , give its reported apparent KD of MS2 coat protein.
Return: 41.2

---

# System: MS2 coat protein
# Assay protocol: apparent KD of MS2 coat protein; designed switch direction (-1 OFF switch, 1 ON switch): 1; higher = weaker reporter binding
# Setup conditions: input ligand: FMN 200 uM
Respond with YES for apparent KD of MS2 coat protein values of 100 nM and above, NO for values below.

>  <Seq>
CGUCGUUUGAUAGGAUAUCGCUUUCCAUGAGGAUCACCCAUGUUUACCACGCUGGUUUUUCUUUCCGAGAAGGAUUCUGAUGUU [salish99_SSNG02_r04_025] (Eterna round: R96, puzzle: Same State NG 2)

>  <Category label>
YES

$$$$
>  <Seq>
GUAGCAUACCGAGGAUAUUCAAACCGGAAACGGACAUGAGGAUCACCCAUGUGGCGAAAGCCUUGGGAGAAGGCGGAAUGCUAC [Xeonanis - 20 Mod76] (Eterna round: R96, puzzle: Same State NG 2)

>  <Category label>
NO

$$$$
>  <Seq>
GUUACAUGAGGAUCACCCAUGUAUGUGUGGGAGUAAGUGUCUUAGGAUAUCUAUUAUUUAAUUAAAGAGAAGGAAGAUUGUUGU [JMF's solution 25] (Eterna round: R96, puzzle: Same State NG 3)

>  <Category label>
YES

$$$$
>  <Seq>
AGAUCAUGACGAGGAUAUGGUACAUGAGGAUCACCCAUGUAUGUACCACGACGGAAACGUCGAAUCCAGAAGGCGUCGUGGUCA [Mat - Same State NG 2 - JL mod - D22] (Eterna round: R96, puzzle: Same State NG 2)

>  <Category label>
NO

$$$$
>  <Seq>
AUAGUUAGCAAAGGAUAUGGGAAAGGAAGUGUACCAGAAGGUUGGCUACUGGGCUUACAUGAGGAUCACCCAUGUCCCGGUAGC [PowerStrip SSNG 1.30] (Eterna round: R96, puzzle: Same State NG 1)

>  <Category label>
NO

$$$$

# ---- query sequence ----
Enquiry: Hi, just wondering whether AACCAGAGAAAACAACUCUGACAUGAGGAUCACCCAUGUACACAGGAUAUCAGCCCGAAAAGGGCUGAGAAGGGUGGCCGAGUG [Beveat] (Eterna round: R96, puzzle: Same State NG 3) shows apparent KD of MS2 coat protein of 100 nM or higher.
Return: YES

---

# maps each entry to its apparent KD of MS2 coat protein
# Tested on: MS2 coat protein
# Assay protocol: apparent KD of MS2 coat protein; designed switch direction (-1 OFF switch, 1 ON switch): -1; higher = weaker reporter binding
# Setup conditions: Eterna round: R95; input ligand: microRNA oligo, concentration not stated
Hi! Could you send only the number? It should be in nM, unit omitted.

Solved cases (3 shown):
>  <Seq>
ACUAGAUGAGGAUAUGCACAUUUUAGUGUUCCUCUAGAUUAACAUGAGGAUCACCCAUGUAGAAGGCGUCAUUA [Exclusion 2 - 14] (puzzle: Exclusion 2)

>  <Target under test>
MS2 coat protein

>  <Result type>
apparent KD of MS2 coat protein

>  <Value units>
nM

>  <Assay result>
49.9

$$$$
>  <Seq>
AGAAGUAGUAACCGAUCCUACAUGAGGAUCACCCAUGUAGCAAGACGUGCACGCGAAGCUCGUCAGACUACCAGAUG [salish99_TOv1_r3_020] (puzzle: Sensor v3, turn-off variant 1)

>  <Target under test>
MS2 coat protein

>  <Result type>
apparent KD of MS2 coat protein

>  <Value units>
nM

>  <Assay result>
252

$$$$
>  <Seq>
GGUUGGCGAGGAUAUACAUGAGGAUCACCCAUGUGAGAGAAAAAAGUGAGCAAGAAAAGUAGAAGGCGCUGACG [salish99_ex3_r3_030] (puzzle: Exclusion 3)

>  <Target under test>
MS2 coat protein

>  <Result type>
apparent KD of MS2 coat protein

>  <Value units>
nM

>  <Assay result>
75.7

$$$$

Enquiry: // Input: AGUAGUAGUAUCCGAUCCUACAUGAGGAUCACCCAUGUGGCUAGACGUGCACGCGAUGCUCGUCAGACUACCAGAUG [salish99_TOv1_r3_038] (puzzle: Sensor v3, turn-off variant 1) . Output its apparent KD of MS2 coat protein only.
Return: 269

Enquiry: Return value of apparent KD of MS2 coat protein for input GUGUAGUCAGGAUAUACAUAGGAAGAGAAGAGAAGAGAAGCACAUGAGGAUCACCCAUGUAGAAGGGACAGUGU [Excluse me!! 4 - Jieux - Exclusion 2] (puzzle: Exclusion 2) , no commentary.
Return: 61.4

Enquiry: Provide measured apparent KD of MS2 coat protein value, entry: ACACAGAUAGGAUAUCGGACUAUGGACAUGAGGAUCACCCAUGUGCGUCCAAUGUCCGACCGAGAAGGAUCAACAG [Teesvete] (puzzle: Exclusion 5)
Return: 51.8

Enquiry: Find the measured apparent KD of MS2 coat protein of UAUAAUUUUUUUUUUUUACAAGCUUUUUGCUCGUCUUAUACAUGAGGAUCACCCAUGUGGGUGAAAGAUAGAUUGUC [JMF's solution 2] (puzzle: Sensor v3, turn-off variant 2) and report it.
Return: 15.5

Enquiry: In one line, give reported apparent KD of MS2 coat protein of the entry UUUAAUUUUUUUUUUUUACAAGCUUUUUGCUCGUCUUAUACAUGAGGAUCACCCAUGUGGGUAGAAGAUAAAUUAUC [JMF 6] (puzzle: Sensor v3, turn-off variant 2) .
Return: 81.8

Enquiry: Please supply the value of reported apparent KD of MS2 coat protein for the item AAAUGUUCGGAGGAUAUAGAACGAUUGUCCGAGCUAGAAGGCCGAACAUGAGGAUCACCCAUGUGUACCUGAAA [Atmare] (puzzle: Exclusion 6)
Return: 38.8

Enquiry: Input CUGGUCCGAGGAUAUAUUAAGUGAUACAUGAGGAUCACCCAUGUAAUUUGAUGGAAAUAAAUAGAAGGCGGACUAG [Mat - Exclusion 5 - JL mod - D44] (puzzle: Exclusion 5) , output reported apparent KD of MS2 coat protein.
Return: 45.9

Enquiry: Fill in reported apparent KD of MS2 coat protein for this entry: CUGAUGUUAGGAUAUCAGGCGCCCGCCACUGGCAAAGCGCAUGAGAAGGGACAUGAGGAUCACCCAUGUAGUAA [Ussoisrebe] (puzzle: Exclusion 4)
Return: 27.7
